B1: library; a variant is named by its letters at N, in order (parent)
chain: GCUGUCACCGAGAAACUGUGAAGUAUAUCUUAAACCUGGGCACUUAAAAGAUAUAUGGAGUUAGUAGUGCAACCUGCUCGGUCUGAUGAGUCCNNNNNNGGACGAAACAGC

variants of: B1; experiment: FACS-Seq fitted mean relative fluorescence mCherry/BFP without ligand (log10 relative fluorescence); HEK293T; ligand: cyclic di-GMP (c-di-GMP-II aptamer); higher = higher reporter protein expression; details: ligand present: no
Everything with FACS-Seq fitted mean (log10) lower than -0.5 is 0 (no); everything else, including exactly -0.5, is 1 (yes).

Q: Check this variant for FACS-Seq fitted mean (log10) at or above -0.5: GUCAGG
Result: 0 (no)
